Experiment: EMT-state selective cytotoxicity in co-culture – imaging, PC-3E GFP, TEM4-18 mCherry, primary screen (AID 1345086);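 further: cells exposed to compound for 72 h before imaging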
Details: PC-3E GFP / TEM4-18 mCherry co-culture, imaging cell counts; measured here: epithelial PC-3E GFP cell survival; at 1 µM
reported_metric: normalised cell number
// return a plain number; no unit text

Previously resolved entries follow.
molecule	normalised cell number
Fc1ccc(C(c2ccc(F)cc2)N2CCN(C/C=C/c3ccccc3)CC2)cc1	0.86
Cc1[nH]c(C)c(Cl)c(=O)c1Cl	1
C[C@@H]1CN(c2c(F)c(N)c3c(=O)c(C(=O)O)cn(C4CC4)c3c2F)C[C@H](C)N1	1.12
CCC1(C)CC(=O)NC1=O (stereo not drawn)	1.07
CCN1CCN(c2cc3c(cc2F)c(=O)c(C(=O)O)cn3C2CC2)CC1	1.12

I'd like to know its normalised cell number. The molecule in question is COc1ccc(CC2c3cc(OC)c(OC)cc3CC[N+]2(C)CCC(=O)OCCCCCOC(=O)CC[N+]2(C)CCc3cc(OC)c(OC)cc3C2Cc2ccc(OC)c(OC)c2)cc1OC (stereo not drawn)
1.18

I'd like to know its normalised cell number. The molecule in question is NS(=O)(=O)c1cc2c(cc1Cl)NC(C(Cl)Cl)NS2(=O)=O (stereo not drawn)
0.88

I'd like to know its normalised cell number. The molecule in question is `COc1ccc(C(=O)NCc2ccc(OCCN(C)C)cc2)cc1OC`
1.24

---

nuclear beta-catenin stimulation listing for selected compounds.
Assay: Wnt pathway potentiators raising nuclear beta-catenin – imaging, WNT3A-conditioned medium, mouse C2C12, NPC library, primary screen (AID 1117326)
Conditions: stimulation, at 2 µM, stronger effect = higher value
Lab book: enter the figure in %, no units written.

Previously resolved entries follow.
compound	nuclear beta-catenin stimulation, %
Cc1onc(-c2ccccc2)c1C(=O)N[C@@H]1C(=O)N2[C@@H]1SC(C)(C)[C@@H]2C(=O)O	0.5
CC1(C)S[C@@H]2[C@H](NC(=O)C(C(=O)O)c3ccccc3)C(=O)N2[C@H]1C(=O)O (some centres undefined)	-0.3
COc1cc2nc(N3CCN(C(=O)C4COc5ccccc5O4)CC3)nc(N)c2cc1OC (centres undefined)	2.3
OCc1ccccc1O	1.3
O=C(O)c1ccccc1Nc1cccc(C(F)(F)F)c1	2.3
CN(CCOc1ccc(NS(C)(=O)=O)cc1)CCc1ccc(NS(C)(=O)=O)cc1	1.6
O=C(O)CCNC(=O)c1ccccc1	0.2
COc1cccc(OC)c1C(=O)N[C@@H]1C(=O)N2[C@@H]1SC(C)(C)[C@@H]2C(=O)O	-1.1
CC(=O)NS(=O)(=O)c1ccc(N)cc1	-0.1
CC(C)c1ccc2oc3nc(N)c(C(=O)O)cc3c(=O)c2c1	-1.6

I'd like to know its nuclear beta-catenin stimulation. The compound in question is C[N+]12CCC(CC1)C(OC(=O)C(O)(c1ccccc1)c1ccccc1)C2 (centres undefined)
1.9

I'd like to know its nuclear beta-catenin stimulation. The compound in question is `COc1cc(/C=C/C(=O)CC(=O)/C=C/c2ccc(O)c(OC)c2)ccc1O`
-2.5

I'd like to know its nuclear beta-catenin stimulation. The compound in question is `O=c1[nH]c(=O)n([C@H]2C[C@H](O)[C@@H](CO)O2)cc1F`
21.6

I'd like to know its nuclear beta-catenin stimulation. The compound in question is `CC(C)(C#N)c1cc(Cn2cncn2)cc(C(C)(C)C#N)c1`
1.7

I'd like to know its nuclear beta-catenin stimulation. The compound in question is COc1cc(C(=O)NC2CCCNC2)cc(OC)c1OC (centres undefined)
2.8

I'd like to know its nuclear beta-catenin stimulation. The compound in question is `CC1=CC(=O)c2ccccc2C1=O`
0.1

I'd like to know its nuclear beta-catenin stimulation. The compound in question is Clc1ccc(C(c2ccccc2Cl)C(Cl)Cl)cc1 (centres undefined)
0.2

I'd like to know its nuclear beta-catenin stimulation. The compound in question is COCCc1ccc(OCC(O)CNC(C)C)cc1 (centres undefined)
1.6

I'd like to know its nuclear beta-catenin stimulation. The compound in question is `COC(=O)[C@@H](N)CS`
2.3

I'd like to know its nuclear beta-catenin stimulation. The compound in question is CCC1(C)CC(=O)NC1=O (centres undefined)
-0.3

I'd like to know its nuclear beta-catenin stimulation. The compound in question is `O=C1Nc2ccc(Cl)cc2[C@@](C#CC2CC2)(C(F)(F)F)O1`
3.6

I'd like to know its nuclear beta-catenin stimulation. The compound in question is CCN(CCCCOC(=O)c1ccc(OC)c(OC)c1)C(C)Cc1ccc(OC)cc1 (centres undefined)
0.5

I'd like to know its nuclear beta-catenin stimulation. The compound in question is `CN1CCN(c2cc3c(cc2F)c(=O)c(C(=O)O)cn3-c2ccc(F)cc2)CC1`
0.3

I'd like to know its nuclear beta-catenin stimulation. The compound in question is `C[C@](N)(Cc1ccc(O)cc1)C(=O)O`
4.5

Data origin: PubChem BioAssay
